- Test system: KRAS G12C mutant NCI-H358 cells
- assay comment: Cell proliferation inhibition experiment, 3D spheroid, CellTiter-Glo, NCI-H358
- Type: cell-based, human
- experimental conditions: Homo sapiens, NCI-H358, 120 h, NCI-H358 (KRAS G12C mutant) 3D spheroid, 5 days with compound, CellTiter-Glo; read-out: H358 IC50
pIC50: −log10 of the molar value.
observed property: pIC50

# count of solved cases: 3
Looking for the measured pIC50 of C=CC(=O)N1CCN2C(=O)c3c(N4CCSCC4)nc(-c4c(O)cccc4F)c(Cl)c3OC[C@H]2C1 [Z264] , can you help?
7.07

Looking for the measured pIC50 of C=CC(=O)N1CCN2C(=O)c3c(C4=CCN(C)CC4C)nc(-c4c(O)cccc4F)c(Cl)c3OC[C@H]2C1 (stereo partly shown) [Z304] , can you help?
6.79

Looking for the measured pIC50 of C=CC(=O)N1CCN2C(=O)c3c(N4C[C@@H](N5CC(C#N)C5)CC4(C)C)nc(-c4ccccc4F)c(Cl)c3OC[C@H]2C1 (single isomer, unassigned) [Z637-2] , can you help?
8.35

(P) C=CC(=O)N1CCN2C(=O)c3c(N4C[C@H](N(C)C)C[C@@H]4C)nc(-c4c(O)cccc4F)c(Cl)c3OC[C@H]2C1 [Z237-1]
(Q) C=CC(=O)N1CCN2C(=O)c3c(N4CCN(C)C[C@@H]4C)nc(C#CC)c(Cl)c3OC[C@H]2C1 [Z459]
(R) C=CC(=O)N1CCN2C(=O)c3c(N4CC(C#N)CC4(C)C)nc(-c4c(O)cccc4F)c(Cl)c3OC[C@H]2C1 (stereo partly shown) [Z275]
(S) C=CC(=O)N1CCN2C(=O)c3c(N4CC(N5CCOCC5)CC4(C)C)nc(-c4ccccc4F)c(Cl)c3OC[C@H]2C1 (single isomer, unassigned) [Z468-1]
Rank order required: pIC50, descending. Provide the ranking by listing each label in its place in the requested order.
R, S, P, Q
(R: 8.68, S: 8.40, P: 7.84, Q: 6.04)

###

- tested target: KRAS G12C (Homo sapiens, UniProt P01116, G12C)
- Sequence (P01116 1-188 isoform P01116-2 G12C): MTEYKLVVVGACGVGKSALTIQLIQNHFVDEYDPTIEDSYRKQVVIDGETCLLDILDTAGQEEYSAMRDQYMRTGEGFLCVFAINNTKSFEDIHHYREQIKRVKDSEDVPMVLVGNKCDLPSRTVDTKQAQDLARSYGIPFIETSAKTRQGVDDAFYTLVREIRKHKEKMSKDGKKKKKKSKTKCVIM
- assay comment: KRAS G12C NEA-HTRF experiment (SOS1-catalyzed displacement of GDP by GTP)
observed property: IC50 (µM)

Looking for the measured IC50 of C=CC(=O)N1CCN2C(=O)c3c(N4CC[C@H](OC)C4(C)C)nc(-c4c(O)cccc4F)c(F)c3OC[C@H]2C1 (single isomer, unassigned) [Z327-2] , can you help?
0.064

Looking for the measured IC50 of C=CC(=O)N1CCN2C(=O)c3c(N4CCC[C@@]4(C)C(=O)NC)nc(-c4c(O)cccc4F)c(Cl)c3OC[C@H]2C1 [Z462] , can you help?
0.131

(A) C=CC(=O)N1CCN2C(=O)c3c(N4C[C@H](OC)CC4(C)C)nc(-c4c(O)cccc4F)c(F)c3OC[C@H]2C1 (single isomer, unassigned) [Z256a-2]
(B) C=CC(=O)N1CCN2C(=O)c3c(N4C[C@H](N5CCN(C)CC5)CC4(C)C)nc(-c4ccccc4F)c(F)c3OC[C@H]2C1 (single isomer, unassigned) [Z474-2]
(C) C=CC(=O)N1CCN2C(=O)c3c(N4CCN(C)C(C)C4C)nc(-c4c(O)cccc4F)c(Cl)c3OC[C@H]2C1 (stereo partly drawn) [Z308a]
(D) C=CC(=O)N1CCN2C(=O)c3c(N4C[C@@H](N5CCC5)CC4(C)C)nc(-c4ccccc4F)c(Cl)c3OC[C@H]2C1 (single isomer, unassigned) [Z471-1]
Number of compounds to sort: 4. Sort criterion: IC50, ascending. Provide the ranking by listing each label in its place in the requested order.
A, D, C, B
